Cited source: the RNAGym collection of RNA variant scans (doi:10.7554/elife.80360)

B1: Hairpin Ribozyme (parent)
chain: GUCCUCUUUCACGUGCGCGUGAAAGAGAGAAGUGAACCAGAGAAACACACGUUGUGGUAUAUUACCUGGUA

Variants of: B1
Assay: self-cleavage, relative activity (ratio to wild type); higher = more cleavage; co-transcriptional
Lab note: compare self-cleavage against 0.2. Equal or greater, write Fulfilled. Smaller, write Not fulfilled.

SEQ_STRING | LABEL_VALUE
GUCCUCUUUCACGUGCGCGUGAAAGACAGAAGUGAACCAGAGUAACACACGUUGUGGUAUAUUACCUGGUA [G27C A43U] | Not fulfilled
GUCCUCUUUCACGUGCGCGUGAAAGAGAAAAGUGAACCAGAGAAACACACGUAGUGGUAUAUUACCUGGUA [G29A U53A] | Not fulfilled
GUCCUCUUUCACGUGCGCUUGAAAGAGAGAAGUGAACCAUAGAAACACACGUUGUGGUAUAUUACCUGGUA [G19U G40U] | Not fulfilled
GUCCUCUUUCACGUGCGCGUGAAAGAAAGAAGUGAACCAGAGAAACACACCUUGUGGUAUAUUACCUGGUA [G27A G51C] | Fulfilled
GUCCUCUUUCACGUGCGCGUGAAAGAGAGAAGUGAACCAGAGUAACACACGUUGGGGUAUAUUACCUGGUA [A43U U55G] | Fulfilled
GUCCUCUUUCACGUGCACGUGAAAGAGAGAAGUGAACCAGAGAAACACACGUUGUGGUAUAUUACCCGGUA [G17A U67C] | Not fulfilled
GUCCUCUAUCACGUGCGCGUGAAAGAGAGAAGUGAACCAGAGAAACACACGUUGUGGUGUAUUACCUGGUA [U8A A59G] | Fulfilled
GUCCUCUUUCACGUGCGCGUGAAAGUGAGAACUGAACCAGAGAAACACACGUUGUGGUAUAUUACCUGGUA [A26U G32C] | Not fulfilled
GUCCUCGUUCACGAGCGCGUGAAAGAGAGAAGUGAACCAGAGAAACACACGUUGUGGUAUAUUACCUGGUA [U7G U14A] | Fulfilled
GUCCUCUUUCACGUGCGCGUGAAAGAGAGCAGUGAACCAGAGACACACACGUUGUGGUAUAUUACCUGGUA [A30C A44C] | Not fulfilled
GUCCUCUUUCACGUGCGCGUGCAAGAGAGAAGUGAACCAGAGCAACACACGUUGUGGUAUAUUACCUGGUA [A22C A43C] | Not fulfilled
GUCCUCUUUCUCGUGCGCGUGAAAGAGAGAAGUGAACCAGAGAAACACACGCUGUGGUAUAUUACCUGGUA [A11U U52C] | Fulfilled
GUCCUCUUUCUCGUGCGCGUGAAAGAGAGAAGUGAACCAGUGAAACACACGUUGUGGUAUAUUACCUGGUA [A11U A41U] | Fulfilled
GUCCUCUUUCACCUGCGCGUGAAAGAGAGAAGUGAACCAGAGAAACACACGUUGUGGUAUAUUACCUGGUA [G13C] | Fulfilled
GUCCACUUUCACGUGCGCGUGAAAGAGAGAUGUGAACCAGAGAAACACACGUUGUGGUAUAUUACCUGGUA [U5A A31U] | Not fulfilled
GUCCUCUUUCACGUGCGCGUGAAAGAGAGAAGUCAACCAGAGAAACACACGUUGUGGUAUAUUACCUCGUA [G34C G68C] | Fulfilled
GUCCUCUUUCACGUGCGCGUGAAAGAGAGAAGUGAACCAGACAAACACACGUUGUGUUAUAUUACCUGGUA [G42C G57U] | Not fulfilled
GUCCUCUUUCACGUGCGCGUGAAAGAGAGAAGUGAACCAGAGAAACACACGUUGUGCUAUAUUAUCUGGUA [G57C C65U] | Not fulfilled
GUCCUCUUUCACGUGCGCGGGAAAGAGAGAUGUGAACCAGAGAAACACACGUUGUGGUAUAUUACCUGGUA [U20G A31U] | Not fulfilled
GUCCUCUUUCACGUGCGCGUGAAAGAGAGAAGGGAACCAGAGAAACACACGUUGUGGUAUAUUACCUGGUC [U33G A71C] | Fulfilled
GUCCUCUUUCACGUGCGCGUGGAAGAGAGAAGUGAACCAGAGAAACACUCGUUGUGGUAUAUUACCUGGUA [A22G A49U] | Not fulfilled
GUCCGCUUUCACGUGCGCGUGAAAGAGAGAAGUGAACAAGAGAAACACACGUUGUGGUAUAUUACCUGGUA [U5G C38A] | Not fulfilled
GUCCUGUUUCACGUGCGCGUGAAAGAGAGAAGUGAACCAGAGAAACACACGUUGUGGUAUAUUACCUGGUC [C6G A71C] | Fulfilled
GUCCUCUUUCACGUGCGCGUGAAAGAGAUAAGUGAACCUGAGAAACACACGUUGUGGUAUAUUACCUGGUA [G29U A39U] | Not fulfilled
GUUCUCUUUCACGUGCGCGUGAAAGAGAGAAGUGAACCAAAGAAACACACGUUGUGGUAUAUUACCUGGUA [C3U G40A] | Not fulfilled
GUCCUCUUUCACGUGCGCGUGAAAGAGAGAAGUGAACCAGACAAACAUACGUUGUGGUAUAUUACCUGGUA [G42C C48U] | Not fulfilled
GUCAUCUUUCACGUGCGCGUGAAAGAGAGAAGUGAACCAGAGAAACACACGUUGUGGUAUAUUACAUGGUA [C4A C66A] | Not fulfilled
GUUCUCUUUCACGUGCGCGUGAAAGAGAGAAGUGGACCAGAGAAACACACGUUGUGGUAUAUUACCUGGUA [C3U A35G] | Fulfilled
GUCCUCUUUCACAUGCGCGUGAAAGAGAGAAGUGAACCAGAGAAACACACGUUGUGGUAUAGUACCUGGUA [G13A U62G] | Not fulfilled
GCCCUCUUUCACGUGCGCUUGAAAGAGAGAAGUGAACCAGAGAAACACACGUUGUGGUAUAUUACCUGGUA [U2C G19U] | Not fulfilled
GUCCUCUUUCACGUGCGCGUGAAAGAGAGAAGUGAACCAGAGAAACACACAUUGUGGUAUAUUCCCUGGUA [G51A A64C] | Not fulfilled
GUCCUCUUUCACGUGCGCGUGAAAGAGAGAAGUGAACCAGAGAAACACACAUUGUGGUAAAUUACCUGGUA [G51A U60A] | Fulfilled
GUCCUCUUUCACGUGCGCGUGAAAGAGAGAAGUGAACCAGAGAAACACCCGUUGUGGUAUAUAACCUGGUA [A49C U63A] | Not fulfilled
GUCCUCUUUCACGUGCGGGUGAAAGAGAGAAGUGAACCAGAGAAACACACGUUUUGGUAUAUUACCUGGUA [C18G G54U] | Fulfilled
GUCCUCUUUCAGGUGCGCCUGAAAGAGAGAAGUGAACCAGAGAAACACACGUUGUGGUAUAUUACCUGGUA [C12G G19C] | Fulfilled
